B1: MATN2 (parent)
chain: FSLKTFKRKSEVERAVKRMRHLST

# Variants of: B1
# TEST_NAME: protein stability index of a GFP-peptide fusion (GPS, HEK-293T) (PSI 1-6); higher = more stable;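 note: lentivirally expressed fusions sorted by FACS into six bins by GFP to DsRed ratio, PSI derived from sequencing read proportions per bin multiplied by bin number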
# SETUP_CONDITIONS: c terminus: a fixed tail appended
Listed below: protein stability index values for each entry.
OBSERVABLE: protein stability index

[[record]]
variant_string = "M19L"
recorded_result = 2.31

[[record]]
variant_string = "F6V"
recorded_result = 2.96

[[record]]
variant_string = "H21R"
recorded_result = 2.41

[[record]]
variant_string = "K4L"
recorded_result = 1.78

[[record]]
variant_string = "F6H"
recorded_result = 2.94

[[record]]
variant_string = "R20P"
recorded_result = 3.21

[[record]]
variant_string = "R18A"
recorded_result = 1.96

[[record]]
variant_string = "R20D"
recorded_result = 2.54

[[record]]
variant_string = "S2V"
recorded_result = 3.07

[[record]]
variant_string = "M19F"
recorded_result = 2.18

[[record]]
variant_string = "S10G"
recorded_result = 1.99


Values from the supplement of paper PMC10567573
